- measurement_target: Nitric oxide synthase 3 (Homo sapiens) (UniProt P29474)
- Sequence (P29474 whole entry): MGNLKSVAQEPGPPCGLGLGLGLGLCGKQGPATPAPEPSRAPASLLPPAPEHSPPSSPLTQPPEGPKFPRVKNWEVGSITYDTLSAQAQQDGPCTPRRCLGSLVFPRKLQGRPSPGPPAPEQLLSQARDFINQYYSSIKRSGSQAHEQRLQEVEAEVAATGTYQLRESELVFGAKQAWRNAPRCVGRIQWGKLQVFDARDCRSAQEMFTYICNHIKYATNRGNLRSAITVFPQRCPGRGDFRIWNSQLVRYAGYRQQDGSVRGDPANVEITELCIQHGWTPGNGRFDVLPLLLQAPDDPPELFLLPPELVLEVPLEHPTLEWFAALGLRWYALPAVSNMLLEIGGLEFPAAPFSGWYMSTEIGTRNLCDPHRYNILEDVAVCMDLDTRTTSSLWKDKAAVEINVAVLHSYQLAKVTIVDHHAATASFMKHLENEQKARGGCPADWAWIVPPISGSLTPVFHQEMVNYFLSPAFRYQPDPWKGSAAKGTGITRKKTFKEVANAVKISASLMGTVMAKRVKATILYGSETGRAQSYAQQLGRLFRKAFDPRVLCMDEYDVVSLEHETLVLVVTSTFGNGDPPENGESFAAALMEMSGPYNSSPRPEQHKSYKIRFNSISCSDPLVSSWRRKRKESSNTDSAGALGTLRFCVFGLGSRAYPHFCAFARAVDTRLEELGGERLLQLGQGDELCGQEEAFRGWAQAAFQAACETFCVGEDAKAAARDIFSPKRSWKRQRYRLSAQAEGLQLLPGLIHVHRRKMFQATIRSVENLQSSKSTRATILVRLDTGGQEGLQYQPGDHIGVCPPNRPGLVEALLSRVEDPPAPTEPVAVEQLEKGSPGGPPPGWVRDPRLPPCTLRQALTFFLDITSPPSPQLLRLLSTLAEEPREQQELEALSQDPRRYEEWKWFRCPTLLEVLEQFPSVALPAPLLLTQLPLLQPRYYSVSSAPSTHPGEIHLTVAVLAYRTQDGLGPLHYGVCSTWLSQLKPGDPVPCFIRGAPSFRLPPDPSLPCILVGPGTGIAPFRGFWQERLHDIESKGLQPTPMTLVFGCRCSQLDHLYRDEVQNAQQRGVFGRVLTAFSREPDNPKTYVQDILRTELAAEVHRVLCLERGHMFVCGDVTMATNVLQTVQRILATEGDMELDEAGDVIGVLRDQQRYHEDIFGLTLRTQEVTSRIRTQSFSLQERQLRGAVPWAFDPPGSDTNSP
- test_name: Inhibition of human eNOS assessed as residual activity at 100 uM by Griess assay relative to control
Class (by Activity) -- lower (below 50%), middle (50% to below 80%), upper (80% or more)

As a guide, the following entries are already answered.
CC1=CC2=NCC(C(=O)c3ccc(-c4ccc(F)cc4)cc3)CN2C=C1 (stereo not given) : lower
CCSC(=N)N : lower
CC1=CC2=NCC(C(=O)c3ccc4ccccc4c3)CN2C=C1 (stereo not given) : middle

Exam item: assign CC1=CC=CC2=NCC(C(=O)c3ccc(Br)cc3)CN12 (stereo not given) to the correct category. upper

Each molecule maps to one class by Activity. Which class for CC1=CC2=NCC(C(=O)c3ccccc3)CN2C=C1 (stereo not given) ? middle

Class for COc1ccc(C(=O)C2CN=C3C=C(C)C=CN3C2)cc1F.[O-][Cl+3]([O-])([O-])O (stereo not given) ? upper

Pick a category. Item: COc1ccc(COc2ccc(C(=O)C3CN=C4C=C(C)C=CN4C3)cc2)cc1 (stereo not given) lower

Hey, which category is CC1=CC=CC2=NCC(C(=O)c3ccc(F)cc3)CN12.[O-][Cl+3]([O-])([O-])O (stereo not given) in, do you know? middle

State the band of COc1ccc2cc(C(=O)C3CN=C4C=C(C)C=CN4C3)ccc2c1 (stereo not given) upper

----------
Activity listing for selected molecules.
- measurement_target: Nitric oxide synthase 3 (Homo sapiens)
- test_name: Inhibition of human eNOS assessed as residual activity at 100 uM by Griess assay relative to control
The reply should be a number in %, with the unit left off.

Answered examples (5):
CC1=CC2=NCC(C(=O)c3ccc(OCc4ccc(C#N)cc4)cc3)CN2C=C1.[O-][Cl+3]([O-])([O-])O (stereo unspecified) : 78
O=C(c1ccc(F)cc1)C1CN=C2C=CC=CN2C1 (stereo unspecified) : 79
Cc1ccnc(N)c1 : 50
CC1=CC2=NCC(C(=O)c3ccc4cc(C)ccc4c3)CN2C=C1.[O-][Cl+3]([O-])([O-])O (stereo unspecified) : 11
COc1ccc2cc(C(=O)C3CN=C4C=C(C)C=C(C)N4C3)ccc2c1 (stereo unspecified) : 121

Field request: Activity | item: CC1=CC2=NCC(C(=O)c3ccc(-c4ccc(C#N)cc4)cc3)CN2C=C1.Cl (stereo unspecified) 55

Fill in: Activity of O=C(c1ccc(Cl)c(Cl)c1)C1CN=C2C=CC=CN2C1.[O-][Cl+3]([O-])([O-])O (stereo unspecified) is ___ 89

Look at this molecule and give its reported Activity. CC1=CC=CC2=NCC(C(=O)c3ccc(-c4ccccc4)cc3)CN12 (stereo unspecified) 20

Recorded Activity for COc1ccc(-c2ccc(C(=O)C3CN=C4C=C(C)C=CN4C3)cc2)cc1.Cl (stereo unspecified) , please? 57

Given the entry COc1ccc2cc(C(=O)C3CN=C4C=CC=C(C)N4C3)ccc2c1 (stereo unspecified) , report its measured Activity. 6

For the molecule CC1=CC2=NCC(C(=O)c3ccc(Cl)cc3)CN2C=C1 (stereo unspecified) , what Activity is on record? 7

Which Activity reading was recorded for the molecule CC1=CC2=NCC(C(=O)c3ccc(C#N)cc3)CN2C=C1 (stereo unspecified) ? 75

Please give the measured Activity for this molecule: CC1=CC2=NCC(C(=O)c3ccc(F)cc3)CN2C=C1 (stereo unspecified) 77

For the molecule CC1=CC2=NCC(C(=O)c3ccc(C(=O)O)cc3)CN2C=C1 (stereo unspecified) , what Activity is on record? 94

Activity for Nc1ccccn1 ? 94

Would you mind telling me what Activity value was observed for CC1=CC2=NCC(C(=O)c3ccc(-c4ccc(C(=O)O)cc4)cc3)CN2C=C1 (stereo unspecified) ? 91

Field request: Activity | item: CC1=CC2=NCC(C(=O)c3ccc(-c4ccccc4)cc3)CN2C=C1 (stereo unspecified) 8

Dear colleague, I am looking for the recorded Activity of the following molecule: CC1=CC=CC2=NCC(C(=O)c3ccc4cc(C)ccc4c3)CN12 (stereo unspecified) 75

Bench note: what Activity did CC1=CC2=NCC(C(=O)c3ccc(-c4ccc(Br)cc4)cc3)CN2C=C1.[O-][Cl+3]([O-])([O-])O (stereo unspecified) show? 17

Need Activity, item CC1=CC2=NCC(C(=O)c3ccc(C4CCCCC4)cc3)CN2C=C1 (stereo unspecified) 42

Return reported Activity; argument: O=C(c1ccc(Br)cc1)C1CN=C2C=CC=CN2C1 (stereo unspecified) 85
